Data credit: paper PMC4824110

assay-system: T1, Rrp41 D182A (catalytically inactive);Rrp42 (Sulfolobus solfataricus;Sulfolobus …, UniProt Q9UXC2;Q9UXC0 ;, D182A|)
T1 sequence 1: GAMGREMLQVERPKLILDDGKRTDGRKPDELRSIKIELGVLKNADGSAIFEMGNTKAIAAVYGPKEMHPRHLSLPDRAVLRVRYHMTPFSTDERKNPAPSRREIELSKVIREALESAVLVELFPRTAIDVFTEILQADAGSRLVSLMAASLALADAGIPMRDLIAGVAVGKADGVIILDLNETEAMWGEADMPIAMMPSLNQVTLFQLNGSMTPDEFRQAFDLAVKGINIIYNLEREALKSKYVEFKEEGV
T1 sequence 2: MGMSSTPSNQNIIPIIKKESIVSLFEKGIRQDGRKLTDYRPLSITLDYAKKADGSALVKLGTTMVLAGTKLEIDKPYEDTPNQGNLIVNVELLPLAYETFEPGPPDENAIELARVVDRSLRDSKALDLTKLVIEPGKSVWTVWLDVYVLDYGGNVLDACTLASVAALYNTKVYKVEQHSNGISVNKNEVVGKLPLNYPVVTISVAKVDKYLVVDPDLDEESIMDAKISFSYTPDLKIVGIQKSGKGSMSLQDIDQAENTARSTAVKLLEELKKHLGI
test-name: fluorescence anisotropy
measure: Kd (nM)
State just the number; it will be interpreted in nM.

Would you mind telling me what Kd value was observed for fluorescent 32A (FA RNA) (structured_RNA, 4-thiouridine at position 43) RNA: GCCCCCCCCGAAAGGGGGGGGAAAAAAAAAAAAAAAAAAAAAUAAAAAAAAAAAGCU ?
11.7
